Attribution: patent US5891869A

Tested on: Propionibact. acnes ATCC 6919 L1014
experiment: MIC by microbroth dilution
Type: cell-based, Propionibacterium acnes
settings: 0,01% BSA, 10^5 CFU/ml, 48 h, anaerobic, Wilkins-Chalgren broth
MIC of the compounds values by entry

| molecule | valueUnits | MIC of the compounds |
| --- | --- | --- |
| CNC(=O)CC1NC(=O)c2csc(n2)-c2ccc(-c3nc(C4=NC(C(=O)N5CCC(N(C)C)CC5)CO4)cs3)nc2-c2csc(n2)-c2csc(n2)C(C(O)c2ccccc2)NC(=O)CNC(=O)c2nc(sc2COC)C(C(C)C)NC(=O)c2nc1sc2C (stereo not drawn) [Compound 10s] | µg/mL | 0.016 |
| CNC(=O)CC1NC(=O)c2csc(n2)-c2ccc(-c3nc(C4=NC(C(=O)N(C)CCN5CCN(CCO)CC5)CO4)cs3)nc2-c2csc(n2)-c2csc(n2)C(C(O)c2ccccc2)NC(=O)CNC(=O)c2nc(sc2COC)C(C(C)C)NC(=O)c2nc1sc2C (stereo not drawn) [Compound 19s] | µg/mL | 0.016 |
| CNC(=O)CC1NC(=O)c2csc(n2)-c2ccc(-c3nc(C4=NC(C(=O)NC5CNC(C(N)=O)C5)CO4)cs3)nc2-c2csc(n2)-c2csc(n2)C(C(O)c2ccccc2)NC(=O)CNC(=O)c2nc(sc2COC)C(C(C)C)NC(=O)c2nc1sc2C.O=C(O)C(F)(F)F (mixture of isomers) | µg/mL | 0.13 |
| CNC(=O)CC1NC(=O)c2csc(n2)-c2ccc(-c3nc(C4=NC(C(=O)N(C)CCN5CCN(CCO)CC5)CO4)cs3)nc2-c2csc(n2)-c2csc(n2)C(C(O)c2ccccc2)NC(=O)CNC(=O)c2nc(sc2COC)C(C(C)C)NC(=O)c2nc1sc2C (mixture of isomers) [Compound 19] | µg/mL | 0.016 |
| CNC(=O)CC1NC(=O)c2csc(n2)-c2ccc(-c3nc(C4=NC(C(=O)N(C)CCN(C)C)CO4)cs3)nc2-c2csc(n2)-c2csc(n2)C(C(O)c2ccccc2)NC(=O)CNC(=O)c2nc(sc2COC)C(C(C)C)NC(=O)c2nc1sc2C (stereo not drawn) [Compound 4s] | µg/mL | 0.03 |
| CNC(=O)CC1NC(=O)c2csc(n2)-c2ccc(-c3nc(C4=NC(C(=O)N(C)CCN(C)C)CO4)cs3)nc2-c2csc(n2)-c2csc(n2)C(C(O)c2ccccc2)NC(=O)CNC(=O)c2nc(sc2COC)C(C(C)C)NC(=O)c2nc1sc2C (mixture of isomers) [Compound 4] | µg/mL | 0.016 |
